molecular target: T1, Human TNFa N-his trimers (human, UniProt P01375 77-233); assay: SPR BIAcore T100, His-tagged human TNF trimers captured on NTA chip, scFv as analyte
T1 construct: Captured at 5 nM on an NTA sensor chip by the N-terminal his-tags; also called His-tagged TNF (produced at ESBATech); not shown: N-terminal his-tag
T1 sequence (P01375 77-233 limits assumed): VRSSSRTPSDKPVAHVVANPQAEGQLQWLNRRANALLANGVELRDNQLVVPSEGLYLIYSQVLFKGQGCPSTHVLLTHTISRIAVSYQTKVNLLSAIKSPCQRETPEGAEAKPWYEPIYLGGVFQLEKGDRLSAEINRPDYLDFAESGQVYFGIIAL
MEASURED METRIC: pKd
Please keep in mind that pKd is minus log10 of the molar concentration; only the number is needed.

The binder listed as EP43_max (scFv) EIVMTQSPSTLSASVGDRVIIKCQASQSISDWLAWYQQKPGKAPKLLIYGASRLASGFPSRFSGSGSGAEFTLTISGLEPADFATYYCQQGWSDSYVDNLFGQGTKLTVLGGGGGSGGGGSGGGGSGGGGSEVQLVESGGGLVQPGGSLRLSCTVSGFSLSSGAMSWVRQAPGKGLEWVGVIISSGATYYASWAKGRFTISKDTSKNTVYLQMNSLRAEDTAVYYCARGGPDDSNSMGTFDPWGQGTLVTVSS shows pKd equal to 9.60

The binder listed as EP35_max (scFv) EIVMTQSPSTLSASVGDRVIITCQASQSISNLLAWYQQKPGKAPKLLIVAASKLASGVPSRFSGSGSGTEFTLTISSLQPDDFATYYCQQGWSHTNVDNTFGQGTKLTVLGGGGGSGGGGSGGGGSGGGGSEVQLVESGGGSVQPGGSLRLSCTASGFSFSVGYWICWVRQAPGKGLEWVACIDAGTSGGTYYATWAKGRFTISKDTSKNTVYLQMNSLRAEDTATYYCARGVSSNGYYFKLWGQGTTVTVSS shows pKd equal to 9.71

The binder listed as EP42_min (scFv) EIVMTQSPSTLSASVGDRVIITCQSTESVYKNNYLAWYQQKPGKAPKLLIYDASTLASGVPSRFSGSGSGAEFTLTISSLQPDDFATYYCAGYYRSGFGTANGSFGQGTKLTVLGGGGGSGGGGSGGGGSGGGGSEVQLVESGGGLVQPGGSLRLSCAASGFTFRNDAISWVRQAPGKGLEWVSYISDWGIKYYASWVKGRFTISRDNSKNTLYLQMNSLRAEDTAVYYCAKGAPGAGDNGIWGQGTLVTVSS shows pKd equal to 7.23
